Test system: Plasmodium falciparum
Test: In vitro antimalarial activity against Plasmodium falciparum D10
MEASURE NAME: IC50

Sample records with IC50:
CCC[C@H]1C=C[C@@H](CCC)OO1 | > 10000 nM
C1CCC([C@H]2OOC[C@H]3O[C@@H]23)C1 | 1400 nM

Input: Quickly give me recorded IC50 for C1CCC(C[C@H]2OOC[C@H]3O[C@@H]23)CC1
Output: 2000 nM

Input: Quickly give me recorded IC50 for C1CCC([C@H]2OO[C@@H](C3CCCCC3)[C@H]3O[C@H]32)CC1
Output: 320 nM

Input: Quickly give me recorded IC50 for C1CC([C@H]2OO[C@@H](C3CCC3)[C@@H]3O[C@@H]32)C1
Output: 2900 nM

###

Tested on: Plasmodium falciparum
Test: In vitro antimalarial activity against Plasmodium falciparum D10
MEASURE NAME: IC50 (µM)
Just the number please, in µM, no unit attached.

C[C@@H]1OO[C@H](CC(=O)OC23CC4CC(CC(C4)C2)C3)[C@H]2O[C@H]21 | 1.3

Input: Quickly give me recorded IC50 for C[C@H]1C=C[C@@H](CC(=O)OC23C[C@H]4C[C@@H](C2)C[C@@H](C3)C4)OO1
Output: 1

Input: Quickly give me recorded IC50 for C1CCC([C@H]2OOC[C@@H]3O[C@@H]32)C1
Output: 1.4

Input: Quickly give me recorded IC50 for C1=C[C@H](C2CCCCC2)OO[C@@H]1C1CCCCC1
Output: 1.2

Input: Quickly give me recorded IC50 for C[C@H]1C=C[C@@H](CCCO)OO1
Output: 2.5

Input: Quickly give me recorded IC50 for C1CCC([C@H]2OO[C@@H](C3CCCCC3)[C@@H]3O[C@@H]32)CC1
Output: 0.5

Input: Quickly give me recorded IC50 for C1CCC([C@H]2OO[C@@H](C3CCCC3)[C@H]3O[C@H]32)C1
Output: 0.5

Input: Quickly give me recorded IC50 for C1=C[C@H](c2ccccc2)OO[C@@H]1c1ccccc1
Output: 6

Input: Quickly give me recorded IC50 for C1=C[C@@H](CC2CCCCC2)OOC1
Output: 9.5

Input: Quickly give me recorded IC50 for C1CCC([C@H]2OO[C@@H](C3CCCC3)[C@@H]3O[C@@H]32)C1
Output: 0.5

Input: Quickly give me recorded IC50 for C1=C[C@H](C2CCCCC2)OO[C@@H]1c1ccccc1
Output: 8.1
